# Target: Alpha-glucosidase Type 1 from bakers yeast (Saccharomyces cerevisiae, UniProt P53341)
# Construct: purchased Sigma
# Sequence (P53341 whole entry): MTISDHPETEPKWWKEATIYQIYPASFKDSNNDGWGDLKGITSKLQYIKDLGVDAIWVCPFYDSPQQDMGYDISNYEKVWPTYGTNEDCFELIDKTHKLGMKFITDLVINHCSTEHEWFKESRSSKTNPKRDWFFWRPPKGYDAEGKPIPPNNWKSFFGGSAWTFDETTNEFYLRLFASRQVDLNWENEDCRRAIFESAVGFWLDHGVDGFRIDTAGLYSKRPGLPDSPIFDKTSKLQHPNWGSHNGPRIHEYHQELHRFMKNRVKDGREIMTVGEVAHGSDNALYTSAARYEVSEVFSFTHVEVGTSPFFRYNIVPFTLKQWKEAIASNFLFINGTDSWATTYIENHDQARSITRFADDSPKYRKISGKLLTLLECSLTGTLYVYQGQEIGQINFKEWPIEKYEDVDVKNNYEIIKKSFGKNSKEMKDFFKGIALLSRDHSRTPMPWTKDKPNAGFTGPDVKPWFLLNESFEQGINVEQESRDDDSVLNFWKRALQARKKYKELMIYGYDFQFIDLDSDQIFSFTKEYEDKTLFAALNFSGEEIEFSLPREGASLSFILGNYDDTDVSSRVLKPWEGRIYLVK
# Assay Remarks: Alpha-glucosidase assay
# Type: biochemical
Experimental Readout: IC50 (µM)
Note: unit µM is implicit; provide only the numeric part.

>>> data_value("COc1cc(-c2cc(=O)c3c(O)cc(O)cc3o2)cc(OC)c1O")
36.3

Which IC50 is reported for this compound? O=c1cc(-c2ccc(O)cc2)oc2cc(O)cc(O)c12
220

This collection of values is drawn from patent US9545120B2.
